These entries and their values trace back to ChEMBL document CHEMBL1137364.

- system_tested: P2Y purinoceptor 4 (Homo sapiens)
- Sequence (P51582 whole entry): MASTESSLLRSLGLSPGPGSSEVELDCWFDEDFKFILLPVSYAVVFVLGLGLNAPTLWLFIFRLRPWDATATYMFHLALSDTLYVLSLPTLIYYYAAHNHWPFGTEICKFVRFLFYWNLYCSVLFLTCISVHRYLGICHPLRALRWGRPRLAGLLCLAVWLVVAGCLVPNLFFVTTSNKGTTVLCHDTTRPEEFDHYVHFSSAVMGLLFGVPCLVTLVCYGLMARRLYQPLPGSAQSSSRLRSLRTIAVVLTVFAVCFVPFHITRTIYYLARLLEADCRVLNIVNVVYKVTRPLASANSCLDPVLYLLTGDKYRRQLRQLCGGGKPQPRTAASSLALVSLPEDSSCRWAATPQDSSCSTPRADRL
- assay_details: Agonist activity at human P2Y4 receptor expressed in 1321N1 cells assessed as IP accumulation by SPA at 100 uM
- Format: functional, cell-based
measurement_label: Activity (%)

Here are 5 compounds together with their reported answers.
item_smiles	Activity / %
O=c1[nH]c(=O)n([C@@H]2O[C@H](COP(=O)(O)O)[C@@H](O)[C@H]2O)cc1Br	21
O=c1ccn([C@@H]2O[C@H](COP(=O)(O)OP(=O)(O)O)[C@@H](O)[C@H]2O)c(=S)[nH]1	73
Cc1cc(=O)n([C@@H]2O[C@H](COP(=O)(O)OP(=O)(O)O)[C@@H](O)[C@H]2O)c(=O)[nH]1	7
O=c1cc(O)n([C@@H]2O[C@H](COP(=O)(O)OP(=O)(O)OP(=O)(O)O)[C@@H](O)[C@H]2O)c(=O)[nH]1	12
O=C(Cn1c(=O)ccn([C@@H]2O[C@H](COP(=O)(O)OP(=O)(O)O)[C@@H](O)[C@H]2O)c1=O)c1ccccc1	11

[I] O=C(Cn1c(=O)ccn([C@@H]2O[C@H](COP(=O)(O)O)[C@@H](O)[C@H]2O)c1=O)c1ccccc1
[II] CCCc1cc(=O)n([C@@H]2O[C@H](COP(=O)(O)OP(=O)(O)OP(=O)(O)O)[C@@H](O)[C@H]2O)c(=O)[nH]1
Lookup: Compare I and II by numeric Activity and name the larger one. Use the label to indicate which entry you chose.
Found: II
